Target: T1, human HER3-Fc (R&D Systems, 348-RB) (human, UniProt P21860 20-643)
T1 construct: Bought; also called hHER3-Fc; Fc-HER3; Fc part of the bought chimera not given, not described
Experiment: HRG competition alphascreen
propertyName: IC50 (nM)

HER3MS00078 (VHH, 17B05 basic + F79Y; also called HER3MS0078) VHH: EVQLVESGGGLVQPGGSLRLSCAASGSIGGLNAMAWYRQAPGKERELVAGIFGVGSTRYADSVKGRFTISRDISKNTVYLQMNSLRSEDTAVYYCRMSSVTRGSSDYWGQGTLVTVSS :: 0.811
HER3MS00076 (VHH, 17B05 + A74S, N83R, Q108L; also called HER3MS0076; 17B05 basic variant) VHH: EVQLVESGGGLVQPGGSLRLSCAASGSIGGLNAMAWYRQAPGKERELVAGIFGVGSTRYADSVKGRFTISRDISKNTVFLQMNSLRSEDTAVYYCRMSSVTRGSSDYWGQGTLVTVSS :: 0.788
HER3MS00079 (VHH, also called HER3MS0079) VHH: EVQLVESGGGLVQPGGSLRLSCAASGSIGGLNAMAWYRQAPGKERELVAGIFGVGSTRYADSVKGRFTISRDISKNTVFLQMNSLRSEDTAVYYCAMSSVTRGSSDYWGQGTLVTVSS :: 3.08
HER3MS00080 (VHH, 17B05 basic + I73N + F79Y; also called HER3MS0080) VHH: EVQLVESGGGLVQPGGSLRLSCAASGSIGGLNAMAWYRQAPGKERELVAGIFGVGSTRYADSVKGRFTISRDNSKNTVYLQMNSLRSEDTAVYYCRMSSVTRGSSDYWGQGTLVTVSS :: 0.731

I: HER3MS00081 (VHH, also called HER3MS0081) VHH: EVQLVESGGGLVQPGGSLRLSCAASGSIGGLNAMAWYRQAPGKERELVAGIFGVGSTRYADSVKGRFTISRDNSKNTVFLQMNSLRSEDTAVYYCAMSSVTRGSSDYWGQGTLVTVSS
II: HER3MS00084 (VHH, 17B05 basic + S84P; also called HER3MS0084) VHH: EVQLVESGGGLVQPGGSLRLSCAASGSIGGLNAMAWYRQAPGKERELVAGIFGVGSTRYADSVKGRFTISRDISKNTVFLQMNSLRPEDTAVYYCRMSSVTRGSSDYWGQGTLVTVSS
III: HER3MS00082 (VHH, also called HER3MS0082) VHH: EVQLVESGGGLVQPGGSLRLSCAASGSIGGLNAMAWYRQAPGKERELVAGIFGVGSTRYADSVKGRFTISRDISKNTVYLQMNSLRSEDTAVYYCAMSSVTRGSSDYWGQGTLVTVSS
Enquiry: Reorder: IC50, max to min. # the answer lists labels in the order requested
Return: I, III, II
(I: 5.89 nM, III: 4.05 nM, II: 0.94 nM)

A: HER3MS00083 (VHH, also called HER3MS0083) VHH: EVQLVESGGGLVQPGGSLRLSCAASGSIGGLNAMAWYRQAPGKERELVAGIFGVGSTRYADSVKGRFTISRDNSKNTVYLQMNSLRSEDTAVYYCAMSSVTRGSSDYWGQGTLVTVSS
B: HER3MS00077 (VHH, 17B05 basic + I73N; also called HER3MS0077) VHH: EVQLVESGGGLVQPGGSLRLSCAASGSIGGLNAMAWYRQAPGKERELVAGIFGVGSTRYADSVKGRFTISRDNSKNTVFLQMNSLRSEDTAVYYCRMSSVTRGSSDYWGQGTLVTVSS
Enquiry: I'm curious, which of these has a smaller IC50 number: A or B ? Label of pick, please.
Return: B
